Where do the numbers come from? From patent US10183949B2.

Property: pIC50; scope: individual compounds
Target: Human autotaxin enzyme (Homo sapiens, UniProt Q13822)
Construct: purchased R&D System
Experiment: Evaluation of autotaxin inhibitor, 18:0 Lyso PC / choline assay (Test Example 2)
Type: biochemical
Details: human autotaxin enzyme, 18:0 Lyso PC substrate, choline assay, room temperature 2 hours; read-out: Inhibitor activity (IC50)
Protocol: Solution B containing 100 mM Tris-HCl buffer (pH7.5), 150 mM NaCl, 5 mM MgCl2, and 0.05% Triton X-100 was prepared. Human autotaxin enzyme (purchased from R&D System) was diluted with Solution B, and 2.5 μl of which was added to a solution of test compound in DMSO. […] The fluorescent dye Resorufin, which was produced by the reaction, was detected. The fluorescence was detected using ViewLux (PerkinElmer, Inc.) with a excitation wavelength of 531 nm and a fluorescence wavelength of 598 nm. […]
pIC50: −log10 of the molar value.

// solved cases for pIC50 follow
>  <Compound>
Cc1nc(-c2ccc(Cl)cc2NC(=O)C(C)(C)C)cc(=O)n1CC(=O)NCC1(CO)COC1

>  <Study target>
Human autotaxin enzyme (Homo sapiens, UniProt Q13822)

>  <Meas value>
7.00 to 8.00

$$$$
>  <Compound>
COC(=O)Nc1cc(C#N)ccc1-c1cc(=O)n(CC(=O)N2CC(C)(O)C2)c(C)n1

>  <Study target>
Human autotaxin enzyme (Homo sapiens, UniProt Q13822)

>  <Meas value>
6.00 to 7.00

$$$$
>  <Compound>
O=C(Cn1cnc(-c2ccc(Cl)cc2)cc1=O)NCCCCCCNC(=O)c1ccc2nn[nH]c2c1

>  <Study target>
Human autotaxin enzyme (Homo sapiens, UniProt Q13822)

>  <Meas value>
6.00 to 7.00

$$$$
>  <Compound>
COC(=O)Nc1cc(Cl)ccc1-c1cc(=O)n(CC(=O)N2CCC(C(=N)NO)CC2)c(C)n1

>  <Study target>
Human autotaxin enzyme (Homo sapiens, UniProt Q13822)

>  <Meas value>
7.00 to 8.00

$$$$

Which pIC50 value is on record for Cc1nc(-c2ccc(Cl)cc2NC(=O)C2CC2)cc(=O)n1CC(=O)NCCNS(C)(=O)=O ?
7.00 to 8.00

Query (compound): COC(=O)Nc1cc(C#N)ccc1-c1cc(=O)n(CC(=O)N2CCC(O)CC2)c(C)n1 ; field requested: pIC50
7.00 to 8.00

* * *

biological target: Human autotaxin enzyme (Homo sapiens); construct: purchased R&D System; assay: Evaluation of autotaxin inhibitor, 18:0 Lyso PC / choline assay (Test Example 2); format: biochemical; conditions: human autotaxin enzyme, 18:0 Lyso PC substrate, choline assay, room temperature 2 hours; read-out: Inhibitor activity (IC50)
Endpoint name: IC50

Name the recorded IC50 for CNC(=O)CNC(=O)Cn1c(CCCC(F)(F)F)nc(-c2ccc(Cl)cc2)cc1=O [Compound I-0126] .
100 to 1000 nM

* * *

target: Human autotaxin enzyme (Homo sapiens, UniProt Q13822); construct: purchased R&D System; test: Evaluation of autotaxin inhibitor, 18:0 Lyso PC / choline assay (Test Example 2); type: biochemical; conditions: autotaxin inhibition, IC50 class; read-out: Inhibitor activity
Collected IC50 values appear next to each entry.

Illustrative cases are given below, each with its answer.
>  <Compound>
N#CC1(NC(=O)Cn2c(OCCC(F)(F)F)nc(-c3ccc(Cl)cc3)cc2=O)CC1 [Compound I-0242]

>  <IC50>
100 to 1000 nM

$$$$
>  <Compound>
N#CC1(NC(=O)Cn2c(CCCC(F)(F)F)nc(N3CCC(C(F)(F)F)CC3)c(F)c2=O)CC1 [Compound I-0241]

>  <IC50>
≥ 1000 nM

$$$$
>  <Compound>
CC(=O)Nc1cc(Cl)ccc1-c1cc(=O)n(CC(=O)O)cn1 [Compound I-0246]

>  <IC50>
≥ 1000 nM

$$$$

Look at this compound and give its reported IC50. CC(=O)Nc1cc(Cl)ccc1-c1cc(=O)n(CC(=O)NC2(C#N)CC2)cn1 [Compound I-0249]
100 to 1000 nM

Quick one: IC50 for N#CC1(NC(=O)Cn2c3nc(cc2=O)-c2ccc(Cl)cc2NC(=O)/C=C/CCO3)CC1 [Compound I-0257] ?
10 to 100 nM

Recorded IC50 for CC(=O)Nc1cc(Cl)ccc1-c1cc(=O)n(CC(=O)O)c(C)n1 [Compound I-0247] , please?
≥ 1000 nM

Can you look up the measured IC50 of CSc1nc(-c2ccc(Cl)cc2NC(C)=O)cc(=O)n1CC(=O)NC(C)(C)CO [Compound I-0252] for me?
10 to 100 nM

If you can, please state the reported IC50 value of CC(=O)Nc1cc(Cl)ccc1-c1cc(=O)n(CC(=O)OC(C)(C)C)c(C)n1 [Compound I-0245] .
< 10 nM
